- protocol: Inhibition of Cryptosporidium parvum CDPK1
# if measured IC50 < 300 nM: condition met  # else: condition not met

Record excerpt, results attached:
API: query returns whether the compound falls strictly under 300 nM in IC50. Query: CN1CCN(CCCn2c(N)nc3ccc(C(=O)c4ccccc4)cc32)CC1
condition met

Field: below-cutoff. Rule: recorded IC50 strictly less than 300 nM. Subject: O=C(CC1CCNCC1)Nc1nc2ccc(C(=O)c3ccccc3)cc2[nH]1
condition met

# check: IC50 < 300 nM for Nc1nc2ccc(C(=O)c3ccccc3)cc2n1CCC1CCNCC1
condition met

Regarding Nc1nc2ccc(C(=O)c3ccccc3)cc2n1CCc1ccccn1 , kindly confirm whether its IC50 is beneath 300 nM.
condition not met

Consider O=C(NCCC1CCNCC1)Nc1nc2ccc(C(=O)c3ccccc3)cc2[nH]1 . Does its IC50 lie strictly below 300 nM?
condition met

Continuing:
Please check: IC50 for O=C(NCCCCO)Nc1nc2ccc(C(=O)c3ccccc3)cc2[nH]1 , strictly under 300 nM or not?
condition not met

Item NCCC(=O)Nc1nc2ccc(C(=O)c3ccccc3)cc2n1CC1CCNCC1 : IC50 beneath 300 nM, strictly?
condition not met

Is 300 nM strictly greater than the compound's reported IC50? compound: O=C(CCCC1CCNCC1)Nc1nc2ccc(C(=O)c3ccccc3)cc2[nH]1
condition met

Hi there! Is IC50 for Nc1nc2ccc(C(=O)c3ccccc3)cc2n1CCc1ccc(F)cc1 below 300 nM, do you know?
condition not met

I'd appreciate it if you could check whether O=C(c1ccccc1)c1ccc2nc(NC(=O)[C@@H]3CCCN3)[nH]c2c1 has IC50 smaller than 300 nM.
condition met
